Test system: Mycobacterium tuberculosis
Assay: Antibacterial activity against Mycobacterium tuberculosis H37Rv after 7 days by microplate alamar blue assay
Type: functional
Conditions: 168 h
READOUT NAME: MIC90

> print(dat)
                                    molecule           meas.value
 1  COc1ccn2nc(C)c(C(=O)NCc3ncc(-c4ccc(OC(F)(F)F)cc4)o3)c2c1           1.96 µg/mL
 2  COc1ccn2nc(C)c(C(=O)NCc3ccc(-c4ccc(OC(F)(F)F)cc4)cc3C(F)(F)F)c2c1            > 5 µg/mL
 3  COc1ccn2nc(C)c(C(=O)NCc3ccc(-c4ccc(OC(F)(F)F)cc4)cc3OC)c2c1           0.28 µg/mL
 4  COc1ccn2nc(C)c(C(=O)NCc3cn(-c4ccc(OC(F)(F)F)cc4)nn3)c2c1            > 5 µg/mL
 5  COc1ccn2nc(C)c(C(=O)NCc3ccc(-c4ccc(OC(F)(F)F)cc4)cc3C)c2c1           0.57 µg/mL
 6  COc1ccn2nc(C)c(C(=O)NCc3ncc(-c4ccc(OC(F)(F)F)cc4)[nH]3)c2c1            > 5 µg/mL
 7  COc1nc2ccc(Br)cc2cc1[C@@H](c1ccccc1)[C@@](O)(CCN(C)C)c1cccc2ccccc12 [BEDAQUILINE]   0.02 to 0.03 µg/mL
 8  COc1ccn2nc(C)c(C(=O)NCc3nnc(-c4ccc(OC(F)(F)F)cc4)o3)c2c1            > 5 µg/mL
 9  COc1ccn2nc(C)c(C(=O)NCc3cnc(-c4ccc(OC(F)(F)F)cc4)s3)c2c1           0.53 µg/mL
10               NNC(=O)c1ccncc1 [ISONIAZID]  0.239 to 0.48 µg/mL
11  CC(=O)NC[C@H]1CN(c2ccc(N3CCOCC3)c(F)c2)C(=O)O1 [LINEZOLID]   1.25 to 3.27 µg/mL
